So I've got a bunch of compounds here, and I need their inhibition values.
assay: TLR3 IRF3 reporter activation blockers – cell-based, poly I:C stimulus, luciferase, 10K MLSCN set, primary screen (AID 602277); settings: HEK293-TLR3 RL24 IRF3 luciferase reporter, at 10 µM, stronger effect = higher value
Activity calls are given as the source filed them.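 The calls were made as follows: active = inhibition of the reporter signal at or above 50%; inactive = inhibition below 50%.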

Some compounds with known inhibition results, for comparison:
N#CCSCC(=O)Nc1ccc(F)cc1
26.3% (inactive)
Cc1occc1C(=O)Nc1ccccc1NC(=O)c1ccoc1C
24.7% (inactive)
CCOC(=O)N1CCC(NC(=O)CCc2c(C)nc3c(c(C)nn3C(C)(C)C)c2C)CC1
-3.64% (inactive)
Nc1nonc1-c1noc(CCCCCN2C(=O)c3ccccc3C2=O)n1
-15.6% (inactive)
CCCc1[nH]nc2c1C(c1cccc(OC(=O)c3ccco3)c1)C(C#N)=C(N)O2 (stereo not drawn)
18% (inactive)

Please state, for each entry, its recorded inhibition.
1. Cc1nnc(NC(=O)Nc2cccc(Cl)c2)s1
2. COc1ccc([C@@H]2Sc3ccccc3N(CCN(C)C)C(=O)[C@@H]2OC(C)=O)cc1
3. CCCc1nn(CCc2ccccn2)c(N)c1CC
4. COc1cc(NC(=O)c2ccc(COCC(F)(F)F)o2)cc(OC)c1OC
5. c1ccc(-c2n[nH]c3ccccc23)cc1
6. COc1cccc(C(=O)Nc2cccc(C(=O)N3CCOCC3)c2)c1
7. O=C(CSc1nnnn1-c1ccccc1)Nc1nsc(-c2ccc(Cl)cc2)n1
8. CCN(CC)CCCN(Cc1cc2cc(OC)ccc2[nH]c1=O)C(=O)Nc1ccccc1

Solution:
["-88.8% (inactive)", "35.5% (inactive)", "21.5% (inactive)", "24.7% (inactive)", "-30% (inactive)", "1.87% (inactive)", "15.1% (inactive)", "29.7% (inactive)"]

Please state, for each entry, its recorded inhibition.
1. Cc1ccc(Cn2nnc3c(=O)n(CC(=O)NCC4CCCO4)cnc32)cc1 (stereo not drawn)
2. Cc1cc(S(=O)(=O)NC2CCCCC2)ccc1OCC(=O)NCc1ccccn1
3. O=C(Nc1ncnc2sc3c(c12)CCCCC3)c1ccco1
4. CCc1nc2c(cnn2-c2ccc(Cl)cc2)c(=O)n1-c1ccc2c(c1)OCCO2

Solution:
1: 18.9% (inactive); 2: 34% (inactive); 3: 22.6% (inactive); 4: -2.86% (inactive)

====

experiment: reduction of polyQ htt aggregates in cells – imaging, exon1htt(103Q)mCFP cells, high-content imaging, primary screen (AID 483); details: exon1htt(103Q)mCFP cell line, aggregate imaging, at 2 µM; measured here: cell count, toxicity;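 also: compound exposure lasted 3 days before fixation; percent of the per-plate median nuclei count of sample wells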
outcome-measure: nuclei count (%)
One number for each entry, in %.

Some compounds with known nuclei count results, for comparison:
COc1ccccc1-n1c(C)nnc1SCC(N)=O
100
CCOC(=O)C1=C(CN2CCOCC2)NC(=O)NC1c1cc(C)ccc1C (stereo not given)
117
CCn1cc(C2=NOC(C(=O)Nc3cc(C)nn3-c3ccccc3)C2)c(C)n1 (stereo not given)
93.2
COc1ccc(-c2coc3c(CN4CCCCC4)c(O)c(CN4CCCCC4)c(O)c3c2=O)cc1
85.4
CC1CC(C)CN(CCCNC(=O)COc2cc(=O)n(C)c3ccccc23)C1 (stereo not given)
99

Please state, for each entry, its recorded nuclei count.
1. Cc1ccc(NC(=O)N2CCC(c3nc4c(nnn4Cc4cccc(Cl)c4)c(=O)[nH]3)CC2)cc1
2. Cc1cccc(OCC(=O)N2CCC(c3ccccc3)C2)c1 (stereo not given)
3. CCc1ccc(NS(=O)(=O)c2ccc3[nH]cc(C(=O)N4CCCCC4)c(=O)c3c2)cc1
4. CCOC(=O)c1sc2ncn(/N=C/N(C)C)c(=O)c2c1C
5. Cc1ccc(-c2c3c(=O)n(C)c(=O)n(C)c3cn2CCCN2CCOCC2)cc1

Solution:
55.6
101
86
72.6
92.9
